Sourced from paper PMC11931385

- experimental system: T1, Rb^P A525G (human, UniProt P06400 380-788, A525G)
- T1 construct: also called variant 20
- T1 sequence (looked up): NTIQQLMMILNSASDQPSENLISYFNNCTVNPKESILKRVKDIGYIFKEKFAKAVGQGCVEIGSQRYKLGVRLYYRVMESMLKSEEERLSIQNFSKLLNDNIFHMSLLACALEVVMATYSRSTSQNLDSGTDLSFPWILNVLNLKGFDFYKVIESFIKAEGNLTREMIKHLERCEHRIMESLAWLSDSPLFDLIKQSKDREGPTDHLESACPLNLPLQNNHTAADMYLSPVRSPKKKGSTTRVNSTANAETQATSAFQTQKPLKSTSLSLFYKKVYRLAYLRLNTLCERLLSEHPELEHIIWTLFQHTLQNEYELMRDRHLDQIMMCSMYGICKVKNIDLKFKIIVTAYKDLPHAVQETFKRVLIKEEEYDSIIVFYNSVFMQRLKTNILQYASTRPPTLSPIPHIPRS
- assay procedure: fluorescence polarisation; 25 °C; unlabeled Rb^P titrated against 1.5 nM TMR-E2F1^TD or 7.5 nM TMR-E7^LxCxE; 25 mM Tris pH 8.0, 200 mM NaCl, 1 mM DTT, 0.1% Tween-20; 2 min incubation; quadratic fit; apparent Kd for the variants, Kd for WT
- cond: both partners purified
No end group written: not given here. TMR = tetramethyl rhodamine dye
property label: Kd (nM)
Numbers only, in nM.

{"binder": "DLYCYEQLN (also: TMR label, position not given here, source: synthetic peptide, bought: GenScript) [TMR-E7^LxCxE, LxCxE peptide of the E7 oncoprotein from HPV]", "unit text": "nM", "recorded result": 12}

Shifting focus to the binder that follows.
**Q:** Complete the entry with Kd for {TMR}-GEGIRDLFDCDFGDLTPLD (also called E2F^TD; source: synthetic peptide, bought: GenScript) [TMR-E2F1^TD, peptide of the E2F1 transactivation domain]
**A:** 36
